- Tested on: Norwalk virus
- Test Details: Antiviral activity against Norwalk virus infected in human HG23 cells assessed as inhibition of viral replication after 24 hrs by qRT-PCR
- Format: functional
- Assay Setup: HG23, 24 h, read-out: ED50 (the source's name)
Result Type: EC50

>  <Given Smiles>
CCCCOc1ccc(CN2CCNS2(=O)=O)cc1

>  <Readout Value>
9.5 µM

$$$$

(Q) Look up and report measured EC50 for this entry: "CC(C)Cc1ccc(CN2CCNS2(=O)=O)cc1"
(A) 9.7 µM

(Q) Look up and report measured EC50 for this entry: "O=C(O)c1ccc(CN2CCN(Cc3cccc(Oc4ccccc4)c3)S2(=O)=O)cc1"
(A) > 10 µM

(Q) Look up and report measured EC50 for this entry: "O=S1(=O)NCCN1Cc1ccc(OCc2ccccc2)cc1"
(A) 9.8 µM

(Q) Look up and report measured EC50 for this entry: "O=C(O)CCCCCCN1CCN(Cc2cccc(Oc3ccccc3)c2)S1(=O)=O"
(A) > 10 µM

(Q) Look up and report measured EC50 for this entry: "O=S1(=O)N(Cc2cccnc2)CCN1Cc1cccc(Oc2ccccc2)c1"
(A) 8.1 µM

(Q) Look up and report measured EC50 for this entry: "NC(=O)CN1CCN(Cc2cccc(Oc3ccccc3)c2)S1(=O)=O"
(A) > 10 µM

(Q) Look up and report measured EC50 for this entry: "COc1ccc(Cn2cc(CN3CCN(C(=O)OC(C)(C)C)S3(=O)=O)nn2)cc1"
(A) 9.8 µM

(Q) Look up and report measured EC50 for this entry: "O=S1(=O)NCCN1Cc1cccc(Oc2ccc(F)cc2)c1"
(A) > 10 µM

====

- System: Norwalk virus
- Test Details: Antiviral activity against Norwalk virus infected in human HG23 cells assessed as inhibition of viral replication after 24 hrs by qRT-PCR
- Type: functional
- Assay Setup: HG23, 24 h, read-out: ED50 (the source's name)
Result Type: EC50

>  <Compound>
O=S1(=O)NCCN1Cc1cccc(Cl)c1

>  <Measurement Target>
Norwalk virus

>  <Readout Value>
> 10 µM

$$$$
>  <Compound>
COC(=O)CCCCCCN1CCN(Cc2cccc(Oc3ccccc3)c2)S1(=O)=O

>  <Measurement Target>
Norwalk virus

>  <Readout Value>
> 10 µM

$$$$
>  <Compound>
CC(C)(C)OC(=O)N1CCN(Cc2cn(Cc3ccccc3)nn2)S1(=O)=O

>  <Measurement Target>
Norwalk virus

>  <Readout Value>
> 10 µM

$$$$
>  <Compound>
O=S1(=O)N(CCN2CCCCC2)CCN1Cc1cccc(Oc2ccccc2)c1

>  <Measurement Target>
Norwalk virus

>  <Readout Value>
4.3 µM

$$$$
>  <Compound>
O=S1(=O)NCCN1CC1CCCN(Cc2ccccc2)C1 (stereo not given)

>  <Measurement Target>
Norwalk virus

>  <Readout Value>
> 10 µM

$$$$

(Q) For Norwalk virus, give the measured EC50 of the entry "COC(=O)CCCCN1CCN(Cc2cccc(Oc3ccccc3)c2)S1(=O)=O"
(A) 9.7 µM

(Q) For Norwalk virus, give the measured EC50 of the entry "O=S1(=O)NCCN1Cc1cccc(Oc2ccccc2)c1"
(A) 4.1 µM

(Q) For Norwalk virus, give the measured EC50 of the entry "CCN1CCN(Cc2cccc(Oc3ccccc3)c2)S1(=O)=O"
(A) > 10 µM

(Q) For Norwalk virus, give the measured EC50 of the entry "CC(C)Oc1ccc(CN2CCNS2(=O)=O)cc1"
(A) > 10 µM

(Q) For Norwalk virus, give the measured EC50 of the entry "CN1CCN(Cc2cccc(Oc3ccccc3)c2)S1(=O)=O"
(A) > 10 µM

(Q) For Norwalk virus, give the measured EC50 of the entry "O=C(O)CCCCN1CCN(Cc2cccc(Oc3ccccc3)c2)S1(=O)=O"
(A) 6.1 µM

(Q) For Norwalk virus, give the measured EC50 of the entry "COC(=O)CCCN1CCN(Cc2cccc(Oc3ccccc3)c2)S1(=O)=O"
(A) > 10 µM

====

- Test Details: Cytotoxicity against human HG23 cells after 48 hrs
- Type: cell-based
- Assay Setup: read-out: TD50
Result Type: CC50 at 48 h (µM)
# number only, unit µM dropped from output

Worked cases, answers included:
>  <Given Smiles>
CCCOc1ccc(CN2CCNS2(=O)=O)cc1

>  <Result Type>
CC50 at 48 h

>  <Readout Value>
96

$$$$
>  <Given Smiles>
O=S1(=O)N(CCN2CCOCC2)CCN1Cc1cccc(Oc2ccccc2)c1

>  <Result Type>
CC50 at 48 h

>  <Readout Value>
49

$$$$
>  <Given Smiles>
COC(=O)CCCCN1CCN(Cc2cccc(Oc3ccccc3)c2)S1(=O)=O

>  <Result Type>
CC50 at 48 h

>  <Readout Value>
46

$$$$
>  <Given Smiles>
O=S1(=O)N(CCN2CCCCC2)CCN1Cc1cccc(Oc2ccccc2)c1

>  <Result Type>
CC50 at 48 h

>  <Readout Value>
9.8

$$$$
>  <Given Smiles>
O=S1(=O)NCCN1Cc1cccc(Oc2ccc(F)cc2)c1

>  <Result Type>
CC50 at 48 h

>  <Readout Value>
98

$$$$

(Q) Look up and report measured CC50 at 48 h for this entry: "O=C(O)CCCCN1CCN(Cc2cccc(Oc3ccccc3)c2)S1(=O)=O"
(A) 100

====

- Test system: Norwalk virus
- Test Details: Antiviral activity against Norwalk virus infected in human HG23 cells assessed as inhibition of viral replication after 24 hrs by qRT-PCR
- Format: functional
- Assay Setup: HG23, 24 h, read-out: ED50 (the source's name)
Result Type: EC50

Worked cases, answers included:
>  <Given Smiles>
CCCCc1ccc(CN2CCNS2(=O)=O)cc1

>  <EC50>
> 10 µM

$$$$
>  <Given Smiles>
O=C(O)CCN1CCN(Cc2cccc(Oc3ccccc3)c2)S1(=O)=O

>  <EC50>
> 10 µM

$$$$

(Q) Look up and report measured EC50 for this entry: "CSc1ccc(CN2CCNS2(=O)=O)cc1"
(A) > 10 µM

(Q) Look up and report measured EC50 for this entry: "O=S1(=O)NCCN1Cc1ccc(Cl)cc1"
(A) > 10 µM

(Q) Look up and report measured EC50 for this entry: "O=S1(=O)NCCN1Cc1cccc(OCc2ccccc2)c1"
(A) 5.2 µM

(Q) Look up and report measured EC50 for this entry: "COC(=O)CN1CCN(Cc2cccc(Oc3ccccc3)c2)S1(=O)=O"
(A) > 10 µM

(Q) Look up and report measured EC50 for this entry: "O=C(O)CCCN1CCN(Cc2cccc(Oc3ccccc3)c2)S1(=O)=O"
(A) > 10 µM

====

- Test system: Norwalk virus
- Test Details: Antiviral activity against Norwalk virus infected in human HG23 cells assessed as inhibition of viral replication after 24 hrs by qRT-PCR
- Type: functional
- Assay Setup: HG23, 24 h, read-out: ED50 (the source's name)
Result Type: EC50

>  <Given Smiles>
O=S1(=O)NCCN1Cc1ccc(Oc2ccccc2)cc1

>  <EC50>
5.8 µM

$$$$
>  <Given Smiles>
O=S1(=O)NCCN1Cc1cccc(O)c1

>  <EC50>
> 10 µM

$$$$
>  <Given Smiles>
COc1ccc(CN2CCNS2(=O)=O)cc1

>  <EC50>
> 10 µM

$$$$
>  <Given Smiles>
CCOc1ccc(CN2CCNS2(=O)=O)cc1

>  <EC50>
> 10 µM

$$$$
>  <Given Smiles>
COC(=O)CCN1CCN(Cc2cccc(Oc3ccccc3)c2)S1(=O)=O

>  <EC50>
> 10 µM

$$$$

(Q) Look up and report measured EC50 for this entry: "COc1cccc(CN2CCNS2(=O)=O)c1"
(A) > 10 µM

(Q) Look up and report measured EC50 for this entry: "CCCOc1ccc(CN2CCNS2(=O)=O)cc1"
(A) 5.2 µM

(Q) Look up and report measured EC50 for this entry: "O=S1(=O)NCCN1Cc1ccc(OC(F)(F)F)cc1"
(A) > 10 µM

(Q) Look up and report measured EC50 for this entry: "COC(=O)c1ccc(CN2CCN(Cc3cccc(Oc4ccccc4)c3)S2(=O)=O)cc1"
(A) > 10 µM
